- System: L1210
- protocol: Evaluation of antitumor activity against mutant murine leukemia L1210 cells
- Type: functional
- settings: Mus musculus, read-out: ID50 (the source's name)
IC50 by entry:
Quick reminder: number only, in µg/mL, skip the unit.

{"columns": ["record smiles", "unit text", "measured"],
 "data": [
  ["O=c1[nH]c(=O)n([C@H]2C[C@H](O)[C@@H](CO)O2)cc1Cl", "µg/mL", 339],
  ["O=c1[nH]c(=O)n([C@H]2C[C@H](O)[C@@H](COP(=O)(O)O)O2)cc1C(F)(F)F", "µg/mL", 38],
  ["O=c1[nH]c(=O)n([C@H]2C[C@H](O)[C@@H](CO)O2)cc1C(F)(F)F", "µg/mL", 47],
  ["O=c1[nH]c(=O)n([C@H]2C[C@H](O)[C@@H](CO)O2)cc1F", "µg/mL", 1.8]
]}

Problem: So what does the record say about IC50 for O=c1[nH]c(=O)n([C@H]2C[C@H](O)[C@@H](COP(=O)(O)O)O2)cc1Br ?
Result: 457
